Biological target: Genome polyprotein (Hepatitis C virus genotype 1a (isolate 1) (HCV))
Experiment: Inhibition of Hepatitis C virus NS3 protease in vitro.
pIC50: −log10 of the molar value.
Property: pIC50

>  <Molecule>
CC(C)[C@H](O)C(=O)N1C[C@H](OCc2ccc(Br)cc2)C[C@H]1C(=O)N[C@@H](CC(F)F)C(=O)NCCc1c(F)cc(C(=O)O)cc1F

>  <Value reported>
4.92

$$$$
>  <Molecule>
CCC(CC)C(O)C(=O)N1C[C@H](c2ccccc2)C[C@H]1C(=O)N[C@@H](CC(F)F)C(=O)NCCc1c(F)cc(C(=O)O)cc1F (stereo partly drawn)

>  <Value reported>
4.30

$$$$

[I] O=C(O)c1cc(F)c(CCNC(=O)[C@H](CC(F)F)NC(=O)[C@@H]2C[C@@H](c3ccccc3)CN2C(=O)[C@H](O)C2CCCC2)c(F)c1
[II] CC(C)C[C@H](NC(=O)[C@H](O)c1ccccc1)C(=O)N[C@@H](CC(F)F)C(=O)C(=O)O
[III] CC(C)[C@H](O)C(=O)N1C[C@H](OCCCc2ccccc2)C[C@H]1C(=O)N[C@@H](CC(F)F)C(=O)NCCc1c(F)cc(C(=O)O)cc1F
Arrange by pIC50, high to low. Output spec: labels arranged per the requested ranking.
II, III, I

* * *

# Lookup of reported IC50 keyed by entry
Target: Genome polyprotein (Hepatitis C virus genotype 1a (isolate 1) (HCV))
Assay: Inhibition of Hepatitis C virus NS3 protease in vitro.

# annotated cases, reported IC50 shown
>  <Compound>
O=C(O)c1cc(F)c(CCNC(=O)[C@H](CC(F)F)NC(=O)[C@@H]2C[C@@H](c3ccccc3)CN2C(=O)[C@H](O)c2ccccc2)c(F)c1

>  <Value reported>
> 100 µM

$$$$
>  <Compound>
CC(C)[C@H](O)C(=O)N1C[C@H](OCc2ccccc2)C[C@H]1C(=O)N[C@@H](CC(F)F)C(=O)NCCc1c(F)cc(C(=O)O)cc1F

>  <Value reported>
27 µM

$$$$
>  <Compound>
O=C(O)c1cc(F)c(CCNC(=O)[C@H](CC(F)F)NC(=O)[C@@H]2C[C@@H](c3ccccc3)CN2C(=O)C(O)Cc2ccccc2)c(F)c1 (some centres undefined)

>  <Value reported>
> 100 µM

$$$$

Fill in IC50 for record `CC(C)[C@H](O)C(=O)N1C[C@H](OCc2ccccc2Cl)C[C@H]1C(=O)N[C@@H](CC(F)F)C(=O)NCCc1c(F)cc(C(=O)O)cc1F`
> 100 µM

* * *

Target: Genome polyprotein (Hepatitis C virus genotype 1a (isolate 1) (HCV), UniProt P26664)
Sequence (P26664 1027-1657 limits assumed): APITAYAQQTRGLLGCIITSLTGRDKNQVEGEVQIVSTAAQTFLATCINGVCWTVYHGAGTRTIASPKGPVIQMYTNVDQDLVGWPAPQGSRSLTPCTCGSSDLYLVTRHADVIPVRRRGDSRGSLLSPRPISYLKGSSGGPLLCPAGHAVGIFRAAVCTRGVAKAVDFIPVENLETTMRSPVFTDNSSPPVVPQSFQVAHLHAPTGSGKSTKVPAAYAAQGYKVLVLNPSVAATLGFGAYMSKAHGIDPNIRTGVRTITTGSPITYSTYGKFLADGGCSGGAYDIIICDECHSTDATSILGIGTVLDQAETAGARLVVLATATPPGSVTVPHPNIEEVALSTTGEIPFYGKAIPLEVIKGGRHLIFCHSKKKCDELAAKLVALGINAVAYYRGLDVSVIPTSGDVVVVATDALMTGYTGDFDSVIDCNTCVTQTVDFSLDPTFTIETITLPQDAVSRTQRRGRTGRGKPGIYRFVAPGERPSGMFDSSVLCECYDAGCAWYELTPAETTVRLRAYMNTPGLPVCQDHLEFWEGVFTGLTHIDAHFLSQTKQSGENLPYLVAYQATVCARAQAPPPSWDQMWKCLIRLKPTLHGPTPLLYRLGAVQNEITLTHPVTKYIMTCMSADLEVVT
Assay: Inhibition of Hepatitis C virus NS3 protease in vitro.
Property: IC50

# annotated cases, reported IC50 shown
>  <Compound>
O=C(O)c1cc(F)c(CCNC(=O)[C@H](CC(F)F)NC(=O)[C@@H]2C[C@@H](c3ccccc3)CN2C(=O)[C@@H](O)c2ccccc2)c(F)c1

>  <IC50>
> 100 µM

$$$$
>  <Compound>
O=C(O)c1cc(F)c(CCNC(=O)[C@H](CC(F)F)NC(=O)[C@@H]2C[C@@H](c3ccccc3)CN2C(=O)C(O)C2CC2)c(F)c1 (stereo partly drawn)

>  <IC50>
> 100 µM

$$$$

Let's switch to this compound now.
Fill in IC50 for record `CC(C)[C@@H](O)C(=O)N1C[C@H](c2ccccc2)C[C@H]1C(=O)N[C@@H](CC(F)F)C(=O)NCCc1c(F)cc(C(=O)O)cc1F`
> 100 µM
